- Test system: SN12C
- assay-comment: NCI tumour cell line growth inhibition, 48 h
Activity calls are given as the source filed them. Cut-off read from the data, not from the text of the source: active = GI50 up to about 1.1 µM and inactive = higher.
Labels: true (active), false (inactive)

{"compound": "O=C1Nc2ccc([N+](=O)[O-])cc2/C1=N/NC(=S)Nc1ccccc1", "cat": "false"}
{"compound": "CCOC(=O)/C(C(=O)Nc1ccc(F)cc1)=C(/N)N1CCCC1", "cat": "false"}
{"compound": "Cc1c(N)nc([C@H](CC(N)=O)NC[C@H](N)C(N)=O)nc1C(=O)N[C@H](C(=O)N[C@H](C)[C@@H](O)[C@H](C)C(=O)N[C@H](C(=O)NCCc1nc(-c2nc(C(=O)NCCC[S+](C)C)cs2)cs1)[C@@H](C)O)C(OC1OC(CO)C(O)C(O)C1OC1OC(CO)C(O)C(OC(N)=O)C1O)c1c[nH]cn1 (some centres undefined)", "cat": "true"}
{"compound": "Nc1nc(Cl)cc(Nc2cc(Cl)cc(Cl)c2)n1", "cat": "false"}
{"compound": "CCCCC1C(=O)N(c2ccc(S(=O)(=O)Nc3ccccn3)cc2)N(c2ccc(O)c(C(=O)O)c2)C1=O (centres undefined)", "cat": "false"}
{"compound": "COC(=N)/C(=C1\\OC(=N)C(c2ccc(Cl)cc2)=C1O)c1ccc(Cl)cc1", "cat": "false"}
{"compound": "COP(=O)(OC)C(O)/C=C/c1ccco1 (centres undefined)", "cat": "false"}
{"compound": "Cc1ccsc1/C(S)=N\\c1ccc(Cl)c(/C=N/OC(C)(C)C)c1", "cat": "false"}
{"compound": "C[C@H](CN1CC(=O)NC(=O)C1)N1CC(=O)NC(=O)C1", "cat": "false"}

* * *

- Tested on: M14
- assay-comment: NCI tumour cell line growth inhibition, 48 h
Calls of active or inactive are those of the source. Cut-off read from the data, not from the text of the source: active = GI50 up to about 1.1 µM and inactive = higher.
experimental-readout: GI50

{"molecule": "O=S1(=O)C[C@H](O)[C@H](O)CS1", "observed": "> 100 µM (inactive)"}
{"molecule": "COC(=O)[C@H]1COC(=O)N1", "observed": "> 100 µM (inactive)"}
{"molecule": "CCN(CC)CC(C(C)=O)C(c1ccccc1)c1c(O)c2ccccc2oc1=O (stereo not drawn)", "observed": "> 100 µM (inactive)"}

* * *

- Test system: SR
- assay-comment: NCI tumour cell line growth inhibition, 48 h
Active and inactive are the calls of the source. Cut-off read from the data, not from the text of the source: active = GI50 up to about 1.1 µM and inactive = higher. Bridge positions count the residues as written; N and C are the ends. Square brackets hold non-standard residues; d marks the D form. Peptide text beside a SMILES is read from it. * marks the point of attachment. Cya = N[CH](CS(=O)(=O)O)C(=O)O; X49 = CC(C)CCCCCCCC(O)CC(=O)*; GABA = NCCCC(=O)O
Labels: Y (active), N (inactive)

{"compound": "CN(C)CCN(C)C(=O)C1CCCN1C(=O)OCc1ccccc1 (stereo not given)", "cat": "N"}
{"compound": "CCSc1nc2n(c(=S)n1)CCN2C", "cat": "N"}
{"compound": "CCN(CC)CCNc1ccc([N+](=O)[O-])c2nc3ccccc3c(N)c12", "cat": "Y"}
{"compound": "COc1ccc(NC(=O)CC/C(CC(=O)c2ccco2)=N/Nc2ccc([N+](=O)[O-])cc2[N+](=O)[O-])cc1", "cat": "N"}
{"compound": "COC(=O)C1=NN2c3ccccc3CN([C@@H](C)c3ccccc3)C(=O)[C@@H]2C1", "cat": "N"}
{"compound": "Cn1c(=O)c(C(c2ccc([N+](=O)[O-])cc2)c2c(O)c3ccccc3n(C)c2=O)cc2ccccc21 (stereo not given)", "cat": "N"}
{"compound": "N#Cc1c(NC(=S)Nc2ccc(Cl)cc2)sc2c1CCCC2", "cat": "N"}
{"compound": "CCOC(=O)/C=C/[C@H](O)[C@@H](O)/C=C/C(=O)OCC", "cat": "N"}
{"compound": "CC(C)CCCCCCCC(O)CC(=O)NC(CS(=O)(=O)O)C(=O)NC(CC(C)C)C(=O)NCCCC(=O)NC(Cc1c[nH]cn1)C(=O)NC(C)C(=O)NC1C(=O)NC(C(C)O)C(=O)NC(Cc2c[nH]cn2)C(=O)NC(C)C(=O)NC(C(C)O)C(=O)OC1C (stereo not given) (X49-[Cya]L[GABA]HATTHAT; ester 6-C; configuration not given here)", "cat": "N"}
{"compound": "O=C1C=C(N2CC2)C(=O)C=C1N1CC1", "cat": "Y"}
{"compound": "N#CC12Cc3cc4c(cc3-c3cccc(c31)CCN2C(=O)c1ccccc1)OCO4 (stereo not given)", "cat": "N"}
{"compound": "O=C1c2ccccc2NC2C(O)c3ccccc3N12 (stereo not given)", "cat": "N"}
{"compound": "O=S1(=O)C[C@H](O)[C@H](O)CS1", "cat": "N"}
{"compound": "Nc1ccc(/N=N/c2ccccc2)cc1", "cat": "N"}
{"compound": "COC(=O)/C(=C\\Nc1cccc(C)n1)S(=O)(=O)c1ccc(C)cc1", "cat": "N"}
{"compound": "Cc1ccccc1C1=[N+]([O-])c2ccccc2C1=O", "cat": "N"}
{"compound": "COc1ccc(C(O)(c2ccccc2)c2nccc3ccccc23)cc1 (stereo not given)", "cat": "N"}
{"compound": "COc1ccccc1N1C(=O)C2c3[nH]c4ccccc4c3C3CCC(C(C)(C)C)CC3C2C1=O (stereo not given)", "cat": "N"}
{"compound": "CC1(C)CCC(Sc2ccccc2)O1 (stereo not given)", "cat": "N"}
{"compound": "O=C(O)c1ccc2[nH]c(=O)oc2c1", "cat": "N"}
{"compound": "S=C(Nc1cccc(Cl)c1)Nc1ccccn1", "cat": "N"}
{"compound": "COC(=O)C1=C(O)C(C(=O)OC)[C@]2(O)[C@H](C(=O)OC)[C@H]1C[C@@H](c1ccc(Cl)cc1)[C@H]2C(=O)OC (stereo not given in full)", "cat": "N"}
{"compound": "CCN1/C(=C/C#C/C(C)=C\\c2sc3ccc(Cl)cc3[n+]2CC)Sc2ccc(Cl)cc21", "cat": "Y"}
{"compound": "CCOC(=O)C1(C(=O)OCC)CSC1", "cat": "N"}
{"compound": "Cc1nc2ccc(NC3OCC(O)C(O)C3O)cc2c(=O)n1-c1ccccc1 (stereo not given)", "cat": "N"}
{"compound": "CC(Br)C(=O)c1ccc2cc(Br)c3ccccc3c2c1 (stereo not given)", "cat": "N"}
{"compound": "Cn1c2ccc(Cl)cc2c2ccc3c(c21)C(=O)C=CC3=O", "cat": "N"}
{"compound": "Cc1[nH]c(=O)nc(N/N=C/c2ccc(Cl)cc2)c1C(=O)Nc1ccc(Cl)cc1", "cat": "N"}
{"compound": "COc1ccc(N2CCN(c3ccc4c(c3)NCC(=O)N4)CC2)cc1", "cat": "N"}
{"compound": "O=C(CC(=O)c1ccccc1)C(=O)NC12CC3CC(CC(C3)C1)C2", "cat": "N"}
{"compound": "CC(CO)CCNc1ncnc2c1ncn2CCC(=O)OC(C)(C)C (stereo not given)", "cat": "N"}
{"compound": "CC(=O)NC1C(OCc2ccccc2)OC(CO)C(O)C1OC(C)C(=O)NC(C)C(=O)NC(CCC(=O)NCCCNc1c2ccccc2nc2cccc([N+](=O)[O-])c12)C(N)=O (stereo not given)", "cat": "N"}
{"compound": "Cc1c(C(=O)O)n2c(C)nnc2c2ccccc12", "cat": "N"}
{"compound": "Oc1c(C2=N[C@H]3CCCC[C@@H]3N2)ccc2ccccc12", "cat": "N"}
{"compound": "COC(=O)[C@@H]1C(=O)O[C@@H](c2ccc3c(c2)OCO3)[C@@H]1C(=O)OC.COC(=O)[C@H]1C(=O)O[C@@H](c2ccc3c(c2)OCO3)[C@@H]1C(=O)OC", "cat": "N"}
{"compound": "CCCCCCCCCCC[N+]1(Cc2ccccc2)CC2CCN(Cc3ccccc3)CC2C1 (stereo not given)", "cat": "Y"}
{"compound": "O=C1C=C2CCC[C@H]3OC(=O)C[C@@]23CC1", "cat": "N"}
{"compound": "COC(=O)NCCc1n[nH]c2c1C(=O)C=C(N1CCOCC1)C2=O", "cat": "N"}
{"compound": "O=[N+]([O-])C(=C/C1CCCCC1)/C(=C\\C1CCCCC1)[N+](=O)[O-]", "cat": "N"}
{"compound": "CC12CCC(C/C1=N\\NC(N)=O)C2(C)C (stereo not given)", "cat": "N"}

* * *

compounds and their reported GI50
- System: SNB-19
- assay-comment: NCI tumour cell line growth inhibition, 48 h
Calls of active or inactive are those of the source. No stated cut-off is given here; in the data, active = GI50 up to about 1.1 µM and inactive = higher.

{"compound": "Cn1c(-c2cccs2)cc(-c2ccsc2)c1-c1cccs1", "GI50": "> 100 µM (inactive)"}
{"compound": "Cc1cc(=O)oc2cc(OCc3c(F)cccc3Cl)ccc12", "GI50": "20.9 µM (inactive)"}
{"compound": "Cc1nc(C)c(N2CCN(CN)CC2)c(O)n1", "GI50": "> 100 µM (inactive)"}
{"compound": "OC1OC(c2ccco2)C(F)(F)C(F)(F)C1(F)F (configuration not stated)", "GI50": "> 100 µM (inactive)"}
{"compound": "COc1ccc(C2NC(c3ccc(OC)cc3)C(C)C(=O)C2C)cc1 (configuration not stated)", "GI50": "> 100 µM (inactive)"}
{"compound": "Cc1ccsc1/C(S)=N\\c1ccc(Cl)c(/C=N/OC(C)(C)C)c1", "GI50": "> 100 µM (inactive)"}
{"compound": "Cc1cccc(N2C(=O)C(Cl)=C(Cl)C2=O)c1", "GI50": "> 100 µM (inactive)"}
{"compound": "CCOC(=O)/C=C(/C(=O)OCC)n1cc(C)c(=O)n(Cc2cnnn2COCCOC(C)=O)c1=O", "GI50": "> 58.5 µM (inactive)"}
{"compound": "CC1=C(C(=O)NNS(=O)(=O)c2ccc(C)cc2)CC(C(=O)NNS(=O)(=O)c2ccc(C)cc2)=C(C)N1", "GI50": "> 100 µM (inactive)"}
{"compound": "CCC(C#N)N(Cc1ccc(CN(C(=O)c2ccccc2)C(C#N)CC)cc1)C(=O)c1ccccc1 (configuration not stated)", "GI50": "27 µM (inactive)"}
{"compound": "O=c1[nH]cc(COCCO)c(=O)[nH]1", "GI50": "> 100 µM (inactive)"}
{"compound": "Cc1nc(O)nc(NNCc2ccc(Cl)cc2)c1C(=O)Nc1ccc(Cl)cc1", "GI50": "> 100 µM (inactive)"}
{"compound": "CC(C)C(=O)CC(c1ccc(Br)cc1)N1N=C(C(C)C)CC1c1ccc(Br)cc1 (configuration not stated)", "GI50": "50.7 µM (inactive)"}
{"compound": "CN(C)CCN(C)C(=O)C1CCCN1C(=O)OCc1ccccc1 (configuration not stated)", "GI50": "> 100 µM (inactive)"}
{"compound": "COc1ccc2oc(=O)c(-c3nc4ccccc4o3)cc2c1", "GI50": "> 100 µM (inactive)"}
{"compound": "CC(=O)OC/C=C\\Cn1nc(Br)c(=O)[nH]c1=O", "GI50": "18.7 µM (inactive)"}
{"compound": "Cc1cc(OCc2nc(N)nc(N)c2-c2ccc(Cl)c(Cl)c2)ccc1[N+](=O)[O-]", "GI50": "0.743 µM (active)"}
{"compound": "O=C1c2ccccc2C(=O)c2c(NCCNC(=O)C3CCCN3)ccc(NCCNC(=O)C3CCCN3)c21 (configuration not stated)", "GI50": "44.1 µM (inactive)"}
{"compound": "CC1=C(C(=O)Nc2ccccc2C)C(c2ccc(Cl)cc2)C(C(=O)Nc2ccccc2C)=C(C)N1", "GI50": "> 100 µM (inactive)"}
{"compound": "Cc1cn(C2CC(OC(c3ccccc3)(c3ccccc3)c3ccccc3)C(COC(c3ccccc3)(c3ccccc3)c3ccccc3)O2)c(=O)[nH]c1=O (configuration not stated)", "GI50": "11.7 µM (inactive)"}
{"compound": "O=C1NC(=O)/C(=N\\c2cccc3c(=O)[nH][nH]c(=O)c23)C(c2nc3ccccc3s2)C1=O (configuration not stated)", "GI50": "> 100 µM (inactive)"}
{"compound": "ClCc1c(-c2ccccc2)nn(-c2ccccc2)c1CCl", "GI50": "18.6 µM (inactive)"}
{"compound": "COc1cccc(C(=O)O[C@H]2[C@@H]3[C@]4(OC(C)=O)CO[C@@H]4C[C@H](O)[C@@]3(C)C(=O)[C@H](OC(C)=O)C3=C(C)[C@@H](OC(=O)[C@H](O)[C@@H](NC(=O)OC(C)(C)C)c4ccco4)C[C@]2(O)C3(C)C)c1", "GI50": "0.133 µM (active)"}
{"compound": "COC(=O)C1[C@H](c2cc(OC)c(OC)c(OC)c2)OC(=O)C1(C(=O)OC)C(=O)c1ccc2c(c1)OCO2 (some centres not stated)", "GI50": "> 100 µM (inactive)"}
{"compound": "O=[N+]([O-])c1cccc(/C=N/N=c2\\ccc3ccccc3[nH]2)c1O", "GI50": "4.92 µM (inactive)"}
{"compound": "O=C(c1ccccc1)c1ccc2c(c1)NC(=O)c1ccccc1SSc1ccccc1C(=O)N2", "GI50": "> 100 µM (inactive)"}
{"compound": "O=C(c1ccccc1)c1c(C(=O)c2ccccc2)c(-c2ccccc2)c2c(-c3ccccc3)sc(-c3ccccc3)c2c1-c1ccccc1", "GI50": "> 100 µM (inactive)"}
